test-target: Mitogen-activated protein kinase kinase kinase 5 (Homo sapiens, UniProt Q99683)
Sequence (Q99683 whole entry): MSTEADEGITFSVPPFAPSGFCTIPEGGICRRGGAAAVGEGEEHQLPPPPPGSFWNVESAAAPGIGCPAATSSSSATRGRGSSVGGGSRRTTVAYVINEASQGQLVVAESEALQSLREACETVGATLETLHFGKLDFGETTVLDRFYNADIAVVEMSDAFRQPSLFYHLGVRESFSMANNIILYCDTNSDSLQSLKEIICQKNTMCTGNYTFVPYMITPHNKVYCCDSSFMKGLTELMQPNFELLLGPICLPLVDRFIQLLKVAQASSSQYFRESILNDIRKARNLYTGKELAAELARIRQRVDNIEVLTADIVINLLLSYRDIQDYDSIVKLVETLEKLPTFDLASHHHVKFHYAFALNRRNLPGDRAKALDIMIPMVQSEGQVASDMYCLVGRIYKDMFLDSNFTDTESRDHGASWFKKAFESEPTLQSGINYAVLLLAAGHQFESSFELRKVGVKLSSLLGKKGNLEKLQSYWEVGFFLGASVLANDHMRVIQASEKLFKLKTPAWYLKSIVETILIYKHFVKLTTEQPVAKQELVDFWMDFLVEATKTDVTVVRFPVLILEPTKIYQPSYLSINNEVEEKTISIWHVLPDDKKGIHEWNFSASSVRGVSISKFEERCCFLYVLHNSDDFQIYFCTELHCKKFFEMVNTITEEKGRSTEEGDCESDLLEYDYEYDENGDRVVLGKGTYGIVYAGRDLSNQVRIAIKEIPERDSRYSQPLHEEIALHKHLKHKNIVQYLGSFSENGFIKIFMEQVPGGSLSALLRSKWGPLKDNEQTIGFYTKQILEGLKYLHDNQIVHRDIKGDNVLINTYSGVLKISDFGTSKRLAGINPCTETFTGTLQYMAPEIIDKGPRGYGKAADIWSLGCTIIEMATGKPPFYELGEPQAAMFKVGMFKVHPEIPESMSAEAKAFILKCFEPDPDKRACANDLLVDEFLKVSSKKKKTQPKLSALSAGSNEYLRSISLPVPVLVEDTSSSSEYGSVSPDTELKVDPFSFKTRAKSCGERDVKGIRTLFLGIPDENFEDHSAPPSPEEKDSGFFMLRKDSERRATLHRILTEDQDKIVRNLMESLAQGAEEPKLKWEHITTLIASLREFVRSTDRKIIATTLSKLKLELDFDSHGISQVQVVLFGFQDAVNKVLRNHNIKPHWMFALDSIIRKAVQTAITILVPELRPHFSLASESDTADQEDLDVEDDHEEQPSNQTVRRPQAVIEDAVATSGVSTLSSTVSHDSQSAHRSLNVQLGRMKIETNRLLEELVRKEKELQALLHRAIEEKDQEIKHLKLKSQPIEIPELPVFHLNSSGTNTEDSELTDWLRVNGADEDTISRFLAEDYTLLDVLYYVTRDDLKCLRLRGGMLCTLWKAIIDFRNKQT
run-description: Inhibition of ASK1 (unknown origin) using biotin-MBP as substrate after 20 mins by TR-FRET assay
pIC50: −log10 of the molar value.
metric: pIC50

mol-smiles | quantitative-result
CCn1cc(NC(=O)c2csc(-c3nncn3C(C)C)n2)cn1 | 6.22
CC(C)n1cnnc1-c1nc(C(=O)Nc2ccccn2)cs1 | 6.40
Cc1cc(F)c(C(=O)Nc2ccccn2)cc1-n1cnc(C2CC2)c1 | 5.22

(a) Cc1ccc(C(=O)Nc2cccc(-c3nncn3C(C)C)n2)c(F)c1
(b) CCn1cnc(NC(=O)c2ccoc2)c1
### Prompt Determine, for a and b , which has the greater value of pIC50. Reply briefly: the label of your chosen item.
### Response a

(I) CCn1cnc(NC(=O)c2cscn2)c1
(II) COCCn1cc(NC(=O)c2csc(-c3nncn3C(C)C)n2)cn1
### Prompt Input pair: I , II . Output: entry with lower pIC50. Write the label of whichever entry you select.
### Response I

Where do these numbers come from? They come from ChEMBL document CHEMBL4007491.
